system: 786-0 renal; test: NCI tumour cell line growth inhibition, 48 h; in the data active means GI50 below about 0.43 µM; inactive means the rest
Log the outcome using a class from active, inactive

[Q] Hi team, can someone confirm the assay call for O=C(COc1ccc(Cl)cc1Cl)NNc1ccc([N+](=O)[O-])cc1 ?
[A] inactive

[Q] Query: recorded result category for O=C(Nc1n[nH]c2cc(-c3ccc(F)cc3)ccc12)C1CC1 in this test
[A] inactive

[Q] Outcome logged for C[C@H]1O[C@@H](O[C@H]2[C@@H](O)C[C@H](O[C@H]3[C@@H](O)C[C@H](O[C@H]4CC[C@]5(C)C6CC[C@]7(C)[C@@H](C8=CC(=O)OC8)CC[C@]7(O)C6CC[C@@H]5C4)O[C@@H]3C)O[C@@H]2C)C[C@H](O)[C@@H]1O (stereo not given in full) in this assay:
[A] active

[Q] Outcome logged for O=C1NC(=O)/C(=C/c2ccc3nccc(-c4ccncc4)c3c2)S1 in this assay:
[A] active

[Q] Hi, sorry to bother you, what did the test record for CN1CCN(CCCn2c3c(sc4ncccc43)c(=O)n3nnc(-c4ccccc4)c23)CC1 ?
[A] inactive

[Q] Short answer needed: outcome of this test for c1ccc2c(c1)CCCc1nnc3nc4ccccc4n3c1-2 ?
[A] inactive

[Q] Record request — test call for COC1C[C@H](O[C@@H]2C[C@H](O[C@@H]3C[C@H](O[C@@H]4C(=O)c5c(cc6cc(O[C@H]7C[C@@H](O[C@H]8C[C@@H](O)[C@H](O)C(C)O8)[C@H](O)C(C)O7)c(C)c(O)c6c5O)C[C@H]4C(OC)C(=O)[C@@H](O)[C@@H](C)O)OC(C)[C@H]3O)OC(C)[C@@H]2O)OC(C)[C@@H]1O (stereo not given in full)
[A] active

[Q] Assay outcome for C=C1[C@H](O)C[C@@H](C(C)C(O)CC=C(C)C)[C@@H](O)[C@@H]2C(C)=CC[C@@H]12 (stereo not given in full) : what was it?
[A] inactive

[Q] Record request — test call for COc1ccc(COc2ccc(Cc3cnc(N)nc3N)cc2OC)cc1
[A] inactive

[Q] In this assay, the call recorded for Cc1cc(C2CC(O)C(CO)O2)c(Br)cc1Br (stereo not given) was what?
[A] inactive

[Q] Recorded call for c1ccc2cc(Cn3c(-c4cccc5ccccc45)[n+](Cc4ccc5ccccc5c4)c4c5ccccc5c5ccccc5c43)ccc2c1 ?
[A] active

[Q] What did this assay record as the result for CC1(/C=C/c2ccc(-c3ccccc3)cc2)CCn2cnc3ncnc(c32)N1O (stereo not given) ?
[A] active

[Q] I would be grateful if you could indicate the recorded call for Cc1ccc2c(c1)n([O-])c(C(F)(F)F)c(C(=O)c1ccco1)[n+]2=O .
[A] inactive

[Q] What is the recorded call for this molecule in the test? COc1cc(N2CCN(C(C)C)CC2)ccc1Nc1nc(Nc2ccc(F)cc2C(N)=O)c2cc[nH]c2n1
[A] inactive

[Q] I'd appreciate the recorded outcome for COc1cc2cc(C(=O)Nc3ccccc3)c(N)nc2cc1OC from this test.
[A] inactive

[Q] Kindly provide the recorded test outcome for the following molecule: CCCCCCCN(CCCCCCC)C(=N)c1ccc(OC)c2ccccc12
[A] inactive

[Q] Assay result, entry Cc1cccc(Nc2ncc(-c3ccccc3)o2)c1 — outcome?
[A] inactive

[Q] Tell me the assay call for Cn1cc(-c2nc(-c3c[nH]c4ccccc34)cs2)c2cccnc21 please.
[A] inactive

[Q] Which result was noted for this molecule in the test: CCN1C(=O)N(CC)C2C1NN=c1s/c(=C\c3ccc(Br)cc3)c(=O)n12 (stereo not given)
[A] active

[Q] How was Clc1ccc(Nc2nnc(COc3ccccc3)c3ccccc23)cc1 classified in this test?
[A] inactive

----------
system: HOP-92 NSCLC; experiment: NCI tumour cell line growth inhibition, 48 h; in the data active = GI50 below about 0.43 µM; inactive = the rest
Allowed answers: Y = active, N = inactive

[Q] Name the outcome recorded for Cc1cc(C2CC(O)C(CO)O2)c(Br)cc1Br (stereo not given) in the assay.
[A] N

[Q] Assay outcome for Clc1ccc(Nc2nnc(COc3ccccc3)c3ccccc23)cc1 : what was it?
[A] Y

[Q] What is the recorded call for this compound in the test? Cn1cc(-c2nc(-c3c[nH]c4ccccc34)cs2)c2cccnc21
[A] Y

[Q] Each compound tested received a call. Report the one for COc1ccc(N2CCN(c3nc(-c4ccccn4)nc4sc5c(c34)CCCCCC5)CC2)cc1 .
[A] N

[Q] Each compound tested received a call. Report the one for O=C(O)[C@@H](Cc1ccccc1)NS(=O)(=O)c1ccc(-c2ccccc2)cc1 .
[A] N

[Q] Query: recorded result category for c1ccc(OCC[P+](c2ccccc2)(c2ccccc2)c2ccccc2)cc1 in this test
[A] Y

[Q] Lab log entry: COc1cc(N2CCN(C(C)C)CC2)ccc1Nc1nc(Nc2ccc(F)cc2C(N)=O)c2cc[nH]c2n1 — outcome as called in the assay?
[A] Y

[Q] Please let me know the test result on file for COc1ccc(CNCCN2C(=O)c3ccc4c5c(ccc(c35)C2=O)C(=O)N(CCNCc2ccc(OC)c(OC)c2OC)C4=O)c(OC)c1OC .
[A] N

[Q] Recorded call for Nc1ncnc2c1ncn2Cc1ccc(CCl)cc1 ?
[A] N

[Q] Hi, sorry to bother you, what did the test record for C/C=C1/CN2CCC34c5ccccc5N5C(=O)C(C6CC78c9ccccc9N9C(=O)C=CC(C%10CC7N6C/C%10=C/C)C98)=CC(C1CC23)C54 (stereo not given) ?
[A] N

----------
tested on: NCI-H460 lung; assay: NCI tumour cell line growth inhibition, 48 h
Assign TGI to each entry below.

[Q] Hello, please tell me recorded TGI for this one: CCCCCCCC(=O)[O-].N.N.N.N.N.[Co+3].[O-][Cl+3]([O-])([O-])[O-]
[A] > 100 µM

[Q] Item O=[N+]([O-])c1cc(-c2ccc([As](=O)(O)O)cc2)ccc1[As](=O)(O)O : provide TGI
[A] > 100 µM

[Q] Please list TGI recorded for the compound CN1CN(c2ccccc2)C2(CCN(C(=O)OC(C)(C)C)CC2)C1=O
[A] > 100 µM

[Q] State its TGI for this compound: CN1CCN(CCCn2c3c(sc4ncccc43)c(=O)n3nnc(-c4ccccc4)c23)CC1
[A] 3.37 µM

[Q] Tell me TGI reported for O=C(/C=C/c1cc2ccccc2[nH]c1=O)c1ccc(O)cc1
[A] 6.87 µM

[Q] Note down TGI recorded for COC(=O)/C(=C1\OC(=O)C(c2ccc(Cl)cc2)=C1O)c1ccc(Cl)cc1
[A] 92.4 µM

[Q] Fill in TGI for record COC(=O)C1(N2CCOCC2)CCC([C@@H](c2ccccc2)C(C)[N+](=O)[O-])C1 (stereo not given in full)
[A] > 100 µM

[Q] Give the reported value of TGI for this record: O=C(N/N=C/c1ccc(O)cc1)NNCCO
[A] > 100 µM

[Q] Kindly indicate its recorded TGI. Item: CN1C(=O)c2c(c3c4ccccc4n(C)c3c3c2c2ccccc2n3C)C1=O
[A] > 100 µM

[Q] Report TGI for CC1(/C=C/c2ccc(-c3ccccc3)cc2)CCn2cnc3ncnc(c32)N1O (stereo not given)
[A] 8.25 µM

[Q] Give recorded TGI. CCOC(=O)/C(C(N)=O)=C(/O)c1cnccn1
[A] > 100 µM

[Q] Give the reported value of TGI for this record: OCC1OC(N2CCN(C3OC(CO)C(O)C(O)C3O)CC2)C(O)C(O)C1O (stereo not given)
[A] > 100 µM

[Q] Report TGI, nothing else, for this compound: O=C(Nc1ccc([N+](=O)[O-])cc1Cl)c1cc(Cl)ccc1O
[A] 5.98 µM

[Q] Input COc1ccc2c(c1)C(=O)CC(C(N)=O)C2 (stereo not given) , output reported TGI.
[A] > 100 µM

[Q] Give recorded TGI. C=CCNc1nc2c(N)ncnc2s1
[A] > 10 µM

[Q] Identify TGI associated with the compound COc1cc(/C=C/[N+](=O)[O-])cc(OC)c1
[A] 10.5 µM

[Q] Specify reported TGI for the compound shown: O=C1C2Cc3ccccc3CN2C(=O)N1CN1CCCCC1 (stereo not given)
[A] > 100 µM

[Q] Let me know recorded TGI for O=C1/C(=C/c2ccc(C(=O)O)cc2)CNC/C1=C\c1ccc(C(=O)O)cc1 , thanks.
[A] > 100 µM

[Q] Provide measured TGI value, entry: CN(N=O)N1C(=O)SCC(c2ccccc2)(c2ccccc2)C1=O
[A] > 100 µM

[Q] Read the entry Cc1ccc2c(=O)cc(-c3ccccc3)[nH]c2n1 and write its reported TGI.
[A] > 100 µM

[Q] Look up and state reported TGI for O=C(Nc1c(Cl)cccc1Cl)Oc1cccc2cccnc12
[A] 20.2 µM

[Q] Give the value of TGI reported for the following: Cc1cc(C2CC(O)C(CO)O2)c(Br)cc1Br (stereo not given)
[A] > 100 µM

[Q] Retrieve TGI measured for O=C(O)Cn1cnc2c(=O)[nH]c(Nc3ccccc3)nc21 and print it.
[A] > 100 µM

[Q] Supply measured TGI of OCC1OC(n2cnc3cc(Cl)c(Cl)cc32)C(O)C1O (stereo not given) in your reply.
[A] > 100 µM

[Q] Retrieve TGI measured for COc1ccc(C2[C@@H](Cl)C(=O)N2c2ccc(OC)cc2)cc1 (stereo not given in full) and print it.
[A] > 100 µM

[Q] Report TGI, nothing else, for this compound: O=C(COc1ccc(Cl)cc1Cl)NNc1ccc([N+](=O)[O-])cc1
[A] > 100 µM

[Q] Give the measured TGI for O=C1NC(=O)/C(=C/c2ccc3nccc(-c4ccncc4)c3c2)S1
[A] > 10 µM

[Q] Answer with the recorded TGI of c1ccc(C(OCCN2CC3CCC(C2)N3)c2ccccc2)cc1 only.
[A] > 100 µM

[Q] Please report TGI for the following compound: Cn1c(SCc2ccc([N+](=O)[O-])cc2)nnc1C12CC3CC(CC(C3)C1)C2
[A] > 10 µM

[Q] Identify the reported TGI for the following entry. CCc1cc2c(cc1O)CC[C@@H]1[C@@H]2CC[C@]2(C)[C@@H](O)CC[C@@H]12
[A] 20.9 µM

[Q] Please give the documented TGI of CCC(/C(=N/NC(=O)C[N+](C)(C)C)c1ccccc1)C1OC(=O)c2ccccc21 (stereo not given)
[A] > 100 µM

[Q] Report measured TGI; entry is C=C1[C@H](O)C[C@@H](C(C)C(O)CC=C(C)C)[C@@H](O)[C@@H]2C(C)=CC[C@@H]12 (stereo not given in full)
[A] > 100 µM

[Q] Output TGI of Clc1ccc(CCNCCNC2(c3cc4ccccc4s3)CCCCC2)cc1Cl
[A] 3.16 µM

[Q] Give me measured TGI, please, for this compound: Cc1nc(-n2nc(-c3ccccc3)cc2-c2ccccc2)sc1C(/C=C\c1ccc([N+](=O)[O-])cc1)=N/NC(=S)NN
[A] > 66.7 µM

[Q] Query TGI for Cn1c(=Nc2ccccc2[N+](=O)[O-])sc2ccccc21
[A] > 100 µM

[Q] Name the recorded TGI of the item Cc1cc(C(=O)NOCCO)c(Nc2ccc(I)cc2F)n(C)c1=O in your answer.
[A] > 100 µM

[Q] Kindly indicate its recorded TGI. Item: CC#CC#C/C=C1/C=CC2(CCCCO2)O1 (stereo not given)
[A] > 100 µM

[Q] Please indicate TGI recorded for O=C(Nc1ccc(-c2cn3ccccc3n2)cc1)c1cc(Br)ccc1O
[A] > 100 µM

[Q] Fill in TGI for record CCN(CC)CCNC(=O)C1COc2ccc(-c3cc(=O)c4ccccc4o3)cc2O1 (stereo not given)
[A] 36.2 µM

[Q] State its TGI for this compound: COc1cc(-c2cc(-c3ccc(Nc4nc(Nc5ccc(Cl)cc5)nc(Nc5ccc(Cl)cc5)n4)cc3)no2)cc(OC)c1OC
[A] 46.4 µM

This collection of values is drawn from PubChem BioAssay (NCI).
